These measurements were taken from patent US20240299401A1.

system: U1906L; assay: WST-1 cytotoxicity, U1906L; type: cell-based; conditions: Homo sapiens; U1906L; alone; 24 h; read-out: Calculated IC50 values
MEASURED_ENDPOINT: IC50 (µM)
One number for each entry, in µM.

Measured IC50, "N[C@@H](C[Se][Se]C[C@H](N)C(=O)O)C(=O)O" : 17.8

====

test system: MCF-7; assay: WST-1 cytotoxicity, MCF-7; format: cell-based, human; conditions: MCF7 (Breast); compound alone; 24 h; '>' = dose approximation; read-out: IC50 values
MEASURED_ENDPOINT: IC50

Measured IC50, CC(C)(C)c1cc(O)ccc1O [Tert-butyl hydroxyquinone, reference compound] : > 60 µM

====

test system: H1299; assay: WST-1 cytotoxicity, H1299; assay type: cell-based, human; conditions: H1299 (Lung); compound alone; 24 h; '>' = dose approximation; read-out: IC50 values
MEASURED_ENDPOINT: IC50

Measured IC50, CC(C)(C)c1cc(O)ccc1O [Tert-butyl hydroxyquinone, reference compound] : > 100 µM

====

test system: H661; test: WST-1 cytotoxicity, H661; format: cell-based, human; details: Homo sapiens, NCI-H661; H661; alone; 24 h; read-out: Calculated IC50 values
MEASURED_ENDPOINT: pIC50
Give bare numbers, as −log10 of the molar value.

Measured pIC50, "N[C@@H](C[Se][Se]C[C@H](N)C(=O)O)C(=O)O" : 4.25

====

tested on: H1299; assay: WST-1 cytotoxicity, H1299; format: cell-based, human; conditions: Homo sapiens, NCI-H1299; H1299; alone; read-out: Calculated IC50 values of selenocystine
MEASURED_ENDPOINT: pIC50
One number for each entry, as −log10 of the molar value.

Measured pIC50, N[C@@H](C[Se][Se]C[C@H](N)C(=O)O)C(=O)O [Selenocystine, selenocystine] : 4.64

====

test system: Hep3B; test: WST-1 cytotoxicity, Hep3B; type: cell-based; conditions: Homo sapiens, 24 h, read-out: Calculated IC50 values
MEASURED_ENDPOINT: pIC50
Numbers only, as −log10 of the molar value.

Measured pIC50, O=[Se](O)O [Sodium selenite, sodium selenite] : 5.78

====

tested on: MCF-7; assay: WST-1 cytotoxicity, MCF-7; type: cell-based, human; conditions: Homo sapiens, MCF7; MCF-7; alone; read-out: Calculated IC50 values of selenocystine
MEASURED_ENDPOINT: pIC50
Numbers only, as −log10 of the molar value.

Let me check: "N[C@@H](C[Se][Se]C[C@H](N)C(=O)O)C(=O)O" , system MCF-7, measured pIC50 is 4.46

====

test system: NB4; assay: WST-1 cytotoxicity, NB4; format: cell-based, human; settings: Homo sapiens, NB-4; NB4 (Leukemia); compound alone; 24 h; '>' = dose approximation; read-out: IC50 values
pIC50: −log10 of the molar value. Structures can show the parent of a compound that is named as a salt.
What pIC50 was measured for each of the following?

{"columns": ["COMPOUND", "pIC50"],
 "data": [
  ["C[S+]([O-])CCCCN=C=S (centres unmarked) [Sulforaphen, reference compound]", "< 4.70"],
  ["c1ccc([Se][Se]c2ccccc2)cc1 [Diphenyl diselenide, diphenyl diselenide]", 4.40],
  ["COc1cc(/C=C/C(=O)CC(=O)/C=C/c2ccc(O)c(OC)c2)ccc1O [Curcumin, reference compound]", "< 4.70"],
  ["COC(=O)/C=C/C(=O)OC [Dimethyl fumarate, reference compound]", "< 4.40"]
]}

Okay, next one:
Measured pIC50, c1ccc(SSc2ccccc2)cc1 [Phenyl disulfide] : < 4.70

====

tested on: 8-MGBA; assay: WST-1 cytotoxicity, 8-MGBA; format: cell-based; details: Homo sapiens, 8-MG-BA; 8-MGBA; alone; 24 h; read-out: Calculated IC50 values
MEASURED_ENDPOINT: pIC50
Numbers only, as −log10 of the molar value.

Measured pIC50, "N[C@@H](C[Se][Se]C[C@H](N)C(=O)O)C(=O)O" : 4.30

====

What pIC50 was measured for each of the following?
system: HL60; test: WST-1 cytotoxicity and synergy analysis, HL60; type: cell-based, human; conditions: Homo sapiens, HL-60; HL60 (Leukemia); compound alone; 24 h; '>' = dose approximation; read-out: IC50 values
pIC50: −log10 of the molar value. Counter-ions that a name gives are not always drawn.

Worked cases, answers included:
{"columns": ["COMPOUND", "MEASURED_ENDPOINT", "RESULT_VALUE"],
 "data": [
  ["C[S+]([O-])CCCCN=C=S (centres unmarked) [Sulforaphen, reference compound]", "pIC50", "< 4.70"],
  ["c1ccc(SSc2ccccc2)cc1 [Phenyl disulfide]", "pIC50", "< 4.40"],
  ["c1ccc([Se][Se]c2ccccc2)cc1 [Diphenyl diselenide, diphenyl diselenide]", "pIC50", 4.42]
]}

Please state, for each entry, its recorded pIC50.
1. COc1cc(/C=C/C(=O)CC(=O)/C=C/c2ccc(O)c(OC)c2)ccc1O [Curcumin, reference compound]
2. COC(=O)/C=C/C(=O)OC [Dimethyl fumarate, reference compound]

< 4.70
< 4.40

====

system: H661; assay: WST-1 cytotoxicity, H661; type: cell-based, human; conditions: Homo sapiens, NCI-H661, 24 h, read-out: Calculated IC50 values
MEASURED_ENDPOINT: IC50 (µM)
Answers are plain numbers, in µM.

Measured IC50, O=[Se](O)O [Sodium selenite, sodium selenite] : 53.1

====

tested on: HL60; assay: WST-1 cytotoxicity and synergy analysis, HL60; type: cell-based, human; conditions: Homo sapiens, HL-60, 24 h, read-out: Calculated IC50 values
MEASURED_ENDPOINT: pIC50
One number for each entry, as −log10 of the molar value.

Measured pIC50, O=[Se](O)O [Sodium selenite, sodium selenite] : 4.80

====

test system: A549; assay: WST-1 cytotoxicity, A549; assay type: cell-based, human; settings: Homo sapiens; A549 (Lung); compound alone; 24 h; '>' = dose approximation; read-out: IC50 values
Counter-ions that a name gives are not always drawn.
MEASURED_ENDPOINT: IC50

Worked cases, answers included:
{"columns": ["MOLECULE", "IC50"],
 "data": [
  ["COC(=O)/C=C/C(=O)OC [Dimethyl fumarate, reference compound]", "> 40 µM"],
  ["COc1cc(/C=C/C(=O)CC(=O)/C=C/c2ccc(O)c(OC)c2)ccc1O [Curcumin, reference compound]", "> 20 µM"],
  ["c1ccc(SSc2ccccc2)cc1 [Phenyl disulfide]", "> 40 µM"],
  ["c1ccc([Se][Se]c2ccccc2)cc1 [Diphenyl diselenide, diphenyl diselenide]", "91.1 µM"]
]}

Measured IC50, C[S+]([O-])CCCCN=C=S (centres unmarked) [Sulforaphen, reference compound] : > 10 µM

====

test system: SNB-19; assay: WST-1 cytotoxicity, SNB-19; assay type: cell-based; settings: Homo sapiens; SNB-19; alone; 24 h; read-out: Calculated IC50 values
MEASURED_ENDPOINT: IC50 (µM)
Numbers only, in µM.

Measured IC50, "N[C@@H](C[Se][Se]C[C@H](N)C(=O)O)C(=O)O" : 78.7

====

tested on: IGROV1; experiment: WST-1 cytotoxicity, IGROV1; format: cell-based, human; settings: Homo sapiens, IGROV-1, 24 h, read-out: Calculated IC50 values
MEASURED_ENDPOINT: IC50 (µM)
One number for each entry, in µM.

Let me check: O=[Se](O)O [Sodium selenite, sodium selenite] , system IGROV1, measured IC50 is 5.08

====

tested on: OV2008; experiment: WST-1 cytotoxicity, OV2008; format: cell-based; settings: Homo sapiens, 24 h, read-out: Calculated IC50 values
MEASURED_ENDPOINT: pIC50
Numbers only, as −log10 of the molar value.

Measured pIC50, O=[Se](O)O [Sodium selenite, sodium selenite] : 5.43

====

tested on: HepG2; test: WST-1 cytotoxicity, HepG2; format: cell-based; settings: Homo sapiens, HepG2, 24 h, read-out: Calculated IC50 values
MEASURED_ENDPOINT: IC50

Let me check: O=[Se](O)O [Sodium selenite, sodium selenite] , system HepG2, measured IC50 is 7.58 µM

====

tested on: AML193; test: WST-1 cytotoxicity, AML193; format: cell-based; details: Homo sapiens; AML193; alone; 24 h; read-out: Calculated IC50 values
MEASURED_ENDPOINT: IC50 (µM)
Numbers only, in µM.

Measured IC50, "N[C@@H](C[Se][Se]C[C@H](N)C(=O)O)C(=O)O" : 47

====

system: 8-MGBA; assay: WST-1 cytotoxicity, 8-MGBA; assay type: cell-based; conditions: Homo sapiens, 8-MG-BA, 24 h, read-out: Calculated IC50 values
MEASURED_ENDPOINT: pIC50
One number for each entry, as −log10 of the molar value.

Measured pIC50, O=[Se](O)O [Sodium selenite, sodium selenite] : 5.37
